targetOrTestSystem: Bile acid receptor NR1H4 (Homo sapiens)
test: Agonist activity at FXR in human HepG2 cells
outcomeMeasure: pEC50
# pEC50 = -log10(concentration in molar units)

> print(dat)
                                  cpdsmiles                       targetortestsystem  outcomemeasure  measurednumber
1  O=C(O)c1ccc([C@@H]2C[C@H]2c2ccc(OCc3c(-c4c(Cl)cccc4Cl)noc3C3CC3)cc2Cl)cc1  Bile acid receptor NR1H4 (Homo sapiens)           pEC50            9.12

Continue with the compound presented below.
Input line: # lookup: pEC50 of `O=C(O)c1cc(F)c2nc(N3C[C@@H]4C[C@H]3C[C@H]4OCc3c(-c4ccccc4OC(F)(F)F)noc3C3CC3)sc2c1`
Output line: 9.46
